src = a melting point compilation (Tetko et al.)

property: melting point

Nc1nnc(-c2ccc(Br)c(F)c2)s1
219 to 221 °C
O=C(CCc1ccccc1)NC1CCN(C(=O)CCl)CC1
144 to 146 °C
Clc1nc(CN2CCOCC2)nc2sc3c(c12)CCC3
103 to 107 °C
Cc1ccn2c(N)c(-c3cccs3)nc2c1
223 to 225 °C
NNC(=S)NCCc1ccccn1
124 to 126 °C
Cc1c(Cl)cnc(Cl)c1C#N
76 to 78 °C
O=C(O)c1ccccc1Oc1ccc(Cl)cc1Cl
161 to 163 °C
Nc1ccc(-c2cn3cccnc3n2)cc1
251 to 253 °C
Cc1ccc(N)cc1NC(=O)CN1CCCCC1
108 to 110 °C
Cc1cccc(C(CO)N2CCNCC2)c1 (centres undefined)
81 to 83 °C

Asked: Fill blank: measured melting point of the compound CCC(C)n1ncc2c(C(=O)O)cc(C3CC3)nc21 (centres undefined) is ____.
Given back: 134 to 136 °C

Asked: Dear colleague, I am looking for the recorded melting point of the following compound: "COC(=O)c1ccc(Br)cc1F"
Given back: 59 to 61 °C

Asked: Give its melting point value. Item: "O=C(O)Cc1ccc(-n2cccc2)cc1"
Given back: 171 to 173 °C

---

The compounds listed here are annotated with their melting point.

CS(=O)(=O)c1cccc(C(N)c2ccc(Cl)cc2)c1 (stereo not drawn)
94 to 96 °C

Asked: Recorded melting point of "N#CCc1cc(Br)cnc1O" , please.
Given back: 209 to 211 °C

Asked: Given CC(NC(=O)C1CCOCC1)C(=O)O (stereo not drawn) , state its recorded melting point.
Given back: 178 to 180 °C

Asked: Bench note: what melting point did "Cc1cc(Cl)nc(-c2ccncc2)n1" show?
Given back: 119 to 121 °C

Asked: What does the record list as melting point for COC(=O)CC1c2ccccc2CCN1S(C)(=O)=O (stereo not drawn) ?
Given back: 103 to 105 °C

Asked: Return reported melting point; argument: "Cc1cc(C)nc(N)c1"
Given back: 63 to 64 °C

Asked: Consider the compound shown here: "Cn1c(Cl)c(C=O)c2cc(C=O)ccc21" What is its recorded melting point?
Given back: 164 to 166 °C

Asked: Record request: melting point value, item "Nc1ccc(F)c(S(=O)(=O)N2CCOCC2)c1"
Given back: 128 to 130 °C

---

property: melting point

Asked: Suppose we examine the compound "CC(C)c1c(C(=O)O)cnn1-c1cccc(Cl)c1" ; what melting point value has been reported?
Given back: 161 to 163 °C

Asked: // melting point lookup, key: OC(c1cnn(-c2ccccc2)c1)C(F)(F)F (centres undefined)
Given back: 77 to 79 °C

Asked: Can you look up the measured melting point of "O=C(O)c1ccc(CN2C(=O)C=CC2=O)cc1" for me?
Given back: 163 to 165 °C

---

property: melting point

Use the examples below as a reference point.
CSc1c(F)cc(N)cc1F
91 to 93 °C
COC(=O)c1noc(C(=O)OC)c1O
157 to 161 °C
NC(=NO)c1ccc(-n2cnc3ccccc32)nc1
214 to 216 °C
O=C(O)c1cccc(C(F)F)c1
125 to 127 °C
O=C(O)Cn1cc([N+](=O)[O-])ccc1=O
225 to 227 °C
CC(=O)c1csc(N)n1
165 to 177 °C

Asked: Tell me the measured melting point of "CCOC(=O)c1ccn(C)c(=O)c1" , please.
Given back: 91 to 93 °C

Asked: So what does the record say about melting point for "NC(=O)c1c[nH]cn1" ?
Given back: 194 to 196 °C

Asked: Look up melting point for this compound: "Cc1cc(N)n(-c2cc(C(F)(F)F)ccc2Cl)n1"
Given back: 159 to 161 °C

Asked: What value of melting point has been reported for the following compound? "COc1cc2c(c(OC)c1OC)CCNCC2"
Given back: 60 to 62 °C

Asked: Sample "N#Cc1ccnc(OC2CCC2)c1" — what was its melting point?
Given back: 39 to 41 °C

Asked: Given "Cn1cc(-c2csc(N)n2)cn1" , state its recorded melting point.
Given back: 230 to 232 °C

Asked: Can you look up the measured melting point of "COCc1cc(O)ncn1" for me?
Given back: 159 to 161 °C

Asked: For the compound "NCCC(=O)N1CCN(c2ncccn2)CC1" , what melting point is on record?
Given back: 87 to 89 °C

---

Entries annotated with measured melting point

Asked: Could you share which melting point value was measured for "O=C(c1cc(Cl)ccc1[N+](=O)[O-])N1CCCC1" ?
Given back: 157 to 159 °C

---

property: melting point

Reference set, count: 5
Cc1ccccc1NC1=NC(C)(C)CS1
159 to 161 °C
COc1ncccc1C(N)=S
114 to 116 °C
CC(=O)c1cc(-c2ccccc2)ccc1O
49 to 51 °C
OC1CCOc2ccc(Br)cc21 (centres undefined)
91 to 93 °C
O=C(O)C1=Cc2cc(F)ccc2OC1
209 to 211 °C

Asked: Find the recorded melting point belonging to "Cc1c(C(=O)O)nnn1C1CCN(C(=O)OC(C)(C)C)CC1" and report it.
Given back: 179 to 181 °C

Asked: Please give the measured melting point for this molecule: "OCc1ncc[nH]1"
Given back: 99 to 101 °C

Asked: Quick check: melting point of "NNC(=O)Cc1ccc(Cl)cc1" ?
Given back: 165 to 167 °C

Asked: Request the reported melting point associated with "Clc1ncc(Br)c2ccccc12"
Given back: 98 to 100 °C

Asked: // returns reported melting point for input "COc1cc(C=O)c([N+](=O)[O-])cc1O"
Given back: 207 to 209 °C

Asked: Recorded melting point of "Cc1cc(O)ccc1C(C)C" , please.
Given back: 111 to 114 °C

Asked: # query: melting point of entry "O=C(O)c1ccccc1-c1cncnc1"
Given back: 228 to 230 °C

Asked: Form field: reported melting point of "O=C(O)CSCc1nc2sc3c(c2c(=O)[nH]1)CCC3"
Given back: 198 to 200 °C

Asked: Look up melting point for this molecule: "Cc1ccc(-n2c(C)c[nH]c2=O)cc1"
Given back: 195 to 197 °C

---

Catalogue of melting point readings, one per entry.

O=C(O)c1ccc(Oc2ccc(Cl)cc2Cl)cc1
168 to 170 °C
N#Cc1ccc(Br)cc1[N+](=O)[O-]
91 to 93 °C
CCOC(=O)C1CCN(C(=O)c2ccccc2)CC1
84 to 86 °C
O=C(CCl)Nc1ccc2[nH]c(=O)[nH]c2c1
230 to 232 °C

Asked: Returns the measured melting point for the input molecule. Input: "Cn1ncnc1-c1ccc(C(=O)O)cc1"
Given back: 240 to 242 °C

Asked: Would you mind telling me what melting point value was observed for "Nc1cccc(Cl)c1Sc1ccccn1" ?
Given back: 87 to 89 °C

Asked: Consider the molecule shown here: "Cc1ncc(C=CC(=O)O)s1" What is its recorded melting point?
Given back: 194 to 196 °C

Asked: # query: melting point of entry "O=C(CSc1nnc(NCc2ccccc2)s1)NCC1CCCCC1"
Given back: 134 to 136 °C

Asked: # input molecule: "Cc1cc([N+](=O)[O-])c(S(=O)(=O)Cl)cc1C" ; wanted: its melting point
Given back: 79 to 81 °C

---

property: melting point

O=C(O)c1cc(C2CC2)nc2ccc(Cl)cc12
211 to 213 °C
O=Cc1cc(-n2ccnc2)cs1
123 to 125 °C
NC(=O)c1ccccc1N1CCC(N)C1 (centres undefined)
138 to 140 °C
N#Cc1c(S)nc2c(c1-c1ccco1)CCC2
279 to 281 °C
Cc1ccn(-c2ccc(C(=O)O)cc2)n1
178 to 180 °C
Cc1nnnn1-c1ccc(F)c(NC(=O)CCl)c1
179 to 181 °C
Nc1cccn(Cc2ccccc2)c1=O
119 to 121 °C
CC(NC(=O)CNC(=O)CCl)c1ccc(F)cc1 (centres undefined)
137 to 139 °C
CC(C)(C)c1n[nH]cc1C=O
131 to 133 °C
NCCCN1CCC(C(N)=O)CC1
94 to 96 °C

Asked: Can you look up the measured melting point of "O=C(O)c1ccc(OCC(F)(F)C(F)F)nc1" for me?
Given back: 143 to 145 °C

Asked: Report melting point for "Cc1c(C(=O)O)c(=O)oc2ccccc12" please.
Given back: 163 to 165 °C

Asked: Please report the recorded melting point for "N#Cc1ccc2c(c1)CCCC2=O" .
Given back: 132 to 134 °C

Asked: What value of melting point has been reported for the following molecule? O=C(O)C1CSc2ccccc21 (centres undefined)
Given back: 95 to 97 °C

---

property: melting point

A selection of reference data follows.
O=C(O)c1cc2ccc(Cl)cc2[nH]1
242 to 244 °C
CC(C)Oc1ccc(S(N)(=O)=O)c2ccccc12
95 to 97 °C
O=C(CCl)NCC1CCN(c2ccccc2)C1 (stereo not given)
61 to 63 °C
O=Cc1ccc(OCC(=O)O)c([N+](=O)[O-])c1
156 to 158 °C
COc1ccc2[nH]c(C(=O)O)cc2c1OC(F)F
231 to 233 °C
OCc1ccc2[nH]nnc2c1
146 to 148 °C
Nc1nc(CN2CCN(c3ncccn3)CC2)cs1
158 to 160 °C
CC(=O)c1ccc(-c2ccc(Br)s2)cc1
148 to 150 °C
Cc1ccc(S(=O)(=O)Nc2ccc(C(=O)O)cc2)cc1C
219 to 221 °C
CC(=O)NCc1ccc(C(=O)CCl)cc1
139 to 141 °C

Asked: What does the record list as melting point for "O=C(CCl)Nc1ccccc1-c1ccccc1" ?
Given back: 103 to 106 °C

Asked: Report melting point for "CC(=O)N(c1ccc(C)cc1)c1nc(C=O)cs1" please.
Given back: 166 to 168 °C

Asked: Which value of melting point has been reported for "CCc1[nH]n(C)c(=N)c1-c1ccc2c(c1)OCO2" in the records?
Given back: 154 to 156 °C

Asked: melting point for "CN1CCC(Nc2cccc3ccccc23)CC1" ?
Given back: 83 to 85 °C

Asked: What value of melting point has been reported for the following molecule? "CNC(=O)c1cc(OC)ccc1N"
Given back: 119 to 121 °C

Asked: For the molecule "FC(F)(F)c1ccc2sc(S)nc2c1" , what melting point is on record?
Given back: 221 to 223 °C

Asked: Find the recorded melting point belonging to "Clc1ccc(N2CCCC2)nn1" and report it.
Given back: 115 to 116 °C

Asked: Please give the measured melting point for this molecule: "Cc1nn(C)c(C)c1C(=O)NC1(C(=O)O)CCCC1"
Given back: 235 to 237 °C

Asked: Fill blank: measured melting point of the molecule "O=C1c2ccccc2C(=O)N1CCc1ncc[nH]1" is ____.
Given back: 243 to 245 °C

Asked: Entry "OCc1cn(-c2cccc(Cl)c2Cl)nn1" has what melting point?
Given back: 105 to 107 °C

Asked: Query (molecule): "COc1ccccc1-c1cc(N)n(-c2ccc(C)cc2)n1" ; field requested: melting point
Given back: 104 to 106 °C

Asked: Dear colleague, I am looking for the recorded melting point of the following molecule: CC(Cc1ccc(Cl)cc1)C(=O)O (stereo not given)
Given back: 49 to 51 °C

Asked: Fill in the blank: the reported melting point of "Brc1ccc(NCc2ccsc2)cc1" is ____.
Given back: 44 to 46 °C
